# test.details: in vivo
# cond: mouse, im
Counter-ions that a name gives are not always drawn.
quantity.kind: LD50 (mg/kg)
Just the number please, in mg/kg, no unit attached.

Exam item: LD50 for CCN(CC)CCN1C(=O)c2ccccc2C1=Cc1ccc(OC)cc1 [AL 12, hydrochloride] ?
Marked response: 32.5

* * *

# test.details: 60 day intramuscular toxicological study
# Type: in vivo, rats
# cond: rat, in vivo, im; rats, i.m., 60 days; read-out: dosage of first toxic alterations relative to single dose useful in the human being
Structures can show the parent of a compound that is named as a salt.
quantity.kind: selectivity ratio at 1440 h

Exam item: GET /values?readout=selectivity ratio at 1440 h&item= CCN(CC)CCN1C(=O)c2ccccc2C1=Cc1ccc(OC(C)=O)cc1 [AL 12B, hydrochloride]
Marked response: 10
